test: Brain penetration in vivo assay (brain and plasma exposure)
We begin with a simple list: items and their reported Ratio of exposure in brain to plasma (mouse) (1 h, 10 mpk, po).
Field format: numeric only.

[2H]C([2H])([2H])NC(=O)c1nnc(NC(=O)C2CC2)cc1Nc1cccc(-c2cnn(CC(F)F)n2)c1OC :: 0.3
[2H]C([2H])([2H])NC(=O)c1nnc(NC(=O)C2CC2)cc1Nc1cc(F)cc(-c2cnn(C3CC3)n2)c1OC :: 0.7
[2H]C([2H])([2H])NC(=O)c1nnc(NC(=O)C2CC2)cc1Nc1nccc(-c2cnn(C3CC3)n2)c1OC :: 0.8

Query block: Read the entry [2H]C([2H])([2H])NC(=O)c1nnc(NC(=O)[C@@H]2CC23CC3)cc1Nc1cccc(-c2cnn(C)n2)c1OC and write its reported Ratio of exposure in brain to plasma (mouse) (1 h, 10 mpk, po).
Result block: 0.4

Query block: Provide only the value of recorded Ratio of exposure in brain to plasma (mouse) (1 h, 10 mpk, po) for [2H]C([2H])([2H])NC(=O)c1nnc(NC(=O)C2CC2)cc1Nc1ccc(F)c(-c2cnn(CC)n2)c1OC
Result block: 0.1

---

test: in vitro; conditions: human, Caco-2, pH 7.4
measurement_label: Papp A→B at 2 h, 3 μM (×10⁻⁶ cm/s)
All answers are understood in ×10⁻⁶ cm/s, so give the number only.

Field: example entries. Status: answers known.
[2H]C([2H])([2H])NC(=O)c1nnc(Nc2ccccn2)cc1Nc1cccc(-c2cnn(C)n2)c1OC [Example 8] :: 1.9
[2H]C([2H])([2H])NC(=O)c1nnc(Nc2ccc(OC)nn2)cc1Nc1cccc(-c2cnn(C)n2)c1OC [Example 5] :: 20.9
[2H]C([2H])([2H])NC(=O)c1nnc(NC(=O)C2CC2)cc1Nc1nccc(-c2cnn(C)n2)c1OC [Example 36] :: 32.8
[2H]C([2H])([2H])NC(=O)c1nnc(NC(=O)C2CC2)cc1Nc1cc(F)cc(-c2cnn(C)n2)c1OC [Example 4] :: 32.7
[2H]C([2H])([2H])NC(=O)c1nnc(NC(=O)OC)cc1Nc1cccc(-c2cnn(C)n2)c1OC [Example 7] :: 41.6
[2H]C([2H])([2H])NC(=O)c1nnc(NC(=O)C2CC2)cc1Nc1cc(CC)cc(-c2cnn(C)n2)c1OC [Example 21] :: 33.6

Query block: For the compound [2H]C([2H])([2H])NC(=O)c1nnc(NC(=O)[C@@H]2C[C@@H]2F)cc1Nc1nccc(-c2cnn(C)n2)c1OC [Example 37] , give its measured Papp A→B at 2 h, 3 μM value.
Result block: 49.4

Query block: Consider the compound [2H]C([2H])([2H])NC(=O)c1nnc(NC(=O)C2CC2)cc1Nc1cccc(-c2nn(C)nc2CC)c1OC [Example 20] and give its recorded Papp A→B at 2 h, 3 μM.
Result block: 17

Query block: Supply recorded Papp A→B at 2 h, 3 μM for [2H]C([2H])([2H])NC(=O)c1nnc(NC(=O)C2CC2)cc1Nc1nc(F)cc(-c2cnn(C)n2)c1OC [Example 62] here.
Result block: 43.2

Query block: Note down Papp A→B at 2 h, 3 μM recorded for [2H]C([2H])([2H])NC(=O)c1nnc(NC(=O)C2CC2)cc1Nc1cc(OC)cc(-c2cnn(C)n2)c1OC [Example 24]
Result block: 33

---

system: Caco-2 cells; experiment: Bidirectional permeability assay in Caco-2 cells; settings: Caco-2, 3 μM, pH 7.4, 2 hours
// values below are reported Efflux Ratio
Could you respond with only the numeric value?

[2H]C([2H])([2H])NC(=O)c1nnc(NC(=O)N(C)CC)cc1Nc1nccc(-c2cnn(C)n2)c1OC :: 0.6
[2H]C([2H])([2H])NC(=O)c1nnc(NC(=O)[C@@H]2CC23CC3)cc1Nc1cccc(-c2cnn(C)n2)c1OC :: 0.7
[2H]C([2H])([2H])NC(=O)c1nnc(NC(=O)C2CC2)cc1Nc1cccc(-c2cnn(C3COC3)n2)c1OC :: 0.7

Query block: Give Efflux Ratio for the following compound: [2H]C([2H])([2H])NC(=O)c1nnc(NC(=O)N(C)C(C)C)cc1Nc1nccc(-c2cnn(C)n2)c1OC
Result block: 0.8

Query block: Look up Efflux Ratio of [2H]C([2H])([2H])NC(=O)c1nnc(NC(=O)N2CCC2)cc1Nc1cccc(-c2cnn(C)n2)c1OC and report it.
Result block: 0.9

---

assay: in vitro; settings: human, Caco-2, pH 7.4
measurement_label: Papp A→B at 2 h, 3 μM (nm/s)
Could you give me the number in nm/s? Just the number is fine.

[2H]C([2H])([2H])NC(=O)c1nnc(NC(=O)[C@@H]2C[C@@H]2F)cc1Nc1nc(C)cc(-c2cnn(C)n2)c1OC :: 362
[2H]C([2H])([2H])NC(=O)c1nnc(Nc2cc(C)n(C)n2)cc1Nc1cccc(-c2cnn(C)n2)c1OC :: 74
[2H]C([2H])([2H])NC(=O)c1nnc(NC(=O)C2CC2)cc1Nc1cc(C)cc(-c2cnn(C3CC3)n2)c1OC :: 140
CC(C)(C)NCC(O)COc1cccc2c1CC(O)C(O)C2 (stereo not drawn) [Nadolol, reference compound] :: 20
[2H]C([2H])([2H])NC(=O)c1nnc(NC(=O)C2CC2)cc1Nc1cccc(-c2cnn(CC)n2)c1OC :: 291

Now, please, on to the next molecule.
Query block: Please report Papp A→B at 2 h, 3 μM for the following molecule: [2H]C([2H])([2H])NC(=O)c1nnc(NC(=O)C2CC2)cc1Nc1cccc(-c2cnn(C3CC3)n2)c1OC
Result block: 97

---

assay: in vitro; settings: human, Caco-2, pH 7.4
measurement_label: Papp A→B at 2 h, 3 μM (×10⁻⁶ cm/s)
Field format: number, assumed ×10⁻⁶ cm/s, no unit text.

Observe how each entry below is paired with its result.
[2H]C([2H])([2H])NC(=O)c1nnc(NC(=O)[C@@H]2C[C@H]2C)cc1Nc1nccc(-c2cnn(C)n2)c1OC :: 33.9
[2H]C([2H])([2H])NC(=O)c1nnc(NC(=O)C2CC2)cc1Nc1c(F)ccc(-c2cnn(C)n2)c1OC :: 51.1

Query block: Output measured Papp A→B at 2 h, 3 μM for this item: [2H]C([2H])([2H])NC(=O)c1nnc(NC(=O)C2CC2)cc1Nc1cc(F)c(C)c(-c2cnn(C)n2)c1OC
Result block: 18.8

Query block: Annotate the compound [2H]C([2H])([2H])NC(=O)c1nnc(NC(=O)C2CC2)cc1Nc1cccc(-c2nn(C)nc2C)c1OC with its measured Papp A→B at 2 h, 3 μM.
Result block: 29.5
